system: Fibroblast; experiment: Incucyte cell viability with human fibroblast; assay type: toxicity, cell-based; conditions: 24 h, 10 µM, compound concentration 10 uM, replicate number 2; further: unitless GR value; below 1 slowed growth and below 0 cell loss
Short version: Growth Rate at least 0.6 is rule met, less is rule not met.

Please check the record CC(=O)N[C@@H](CC(=O)O)C(=O)N[C@@H](CCC(=O)O)C(=O)N[C@H](C(=O)N[C@H](C=O)CC(=O)O)C(C)C.O=C(O)C(F)(F)F and state if its Growth Rate is at or above 0.6.
rule not met

Hello, I need to know if CCC(=O)N1CCOc2c(cc(-c3cc(OC)cc(OC)c3)cc2C(=O)N[C@H]2CCCN(C)C2)C1 has measured Growth Rate not below 0.6. Thanks!
rule met

Decide: Growth Rate of CC(=O)N1CCc2c(c(N3CCCc4cc(-c5cnn(C)c5)c(C(F)F)cc43)nn2C2CCOCC2)C1 >= 0.6?
rule met

// inclusive: Growth Rate at least 0.6? input: CC(C)C[C@@H](C=O)NC(=O)[C@@H](NS(=O)(=O)c1ccc(F)cc1)C(C)C
rule met

# check: Growth Rate of Cc1nc(-c2cnc(NC(C)C)n(C)c2=O)ccc1Oc1ccnc(-c2cnn(C)c2)c1 is greater than or equal to 0.6
rule not met

Given COC[C@@H]1CCCN1S(=O)(=O)c1ccc2c(c1)C(=O)C(=O)N2 , state whether its Growth Rate is at least 0.6.
rule met
